Experiment: Multi-component pharmacokinetics in rat plasma after oral administration of RB, RPA or RB-RPA extracts (UPLC-HRMS, non-compartmental analysis)
Type: in vivo, Sprague-Dawley rats
Conditions: male, Sprague-Dawley, rat, plasma, po, 45 g/kg, rat plasma, oral RB-RPA mixed extracts (45 g-herb/kg RB + 45 g-herb/kg RPA), mean ± SD, n = 7
Reported endpoint: AUC(0-inf) (µg·h/mL)
Give a bare numeral; the unit µg·h/mL is implied.

Data request: # get_value(readout='AUC(0-inf)', item= C[C@H]1O[C@@H](O[C@H]2CC[C@@]3(C)[C@@H](CC[C@]4(C)[C@@H]3C=C[C@]35OC[C@@]6(CCC(C)(C)C[C@H]63)[C@@H](O)C[C@]54C)[C@]2(C)CO)[C@H](O)[C@@H](O[C@@H]2O[C@H](CO)[C@@H](O)[C@H](O)[C@H]2O)[C@H]1O [Saikosaponin A] )
Data returned: 0.176

###

Assay: Multi-component pharmacokinetics in rat plasma after oral administration of RB, RPA or RB-RPA extracts (UPLC-HRMS, non-compartmental analysis)
Assay type: in vivo, Sprague-Dawley rats
Settings: male, Sprague-Dawley, rat, plasma, po, 45 g/kg, rat plasma, oral administration of mixed extracts RB-RPA, mean ± SD, n = 7; read-out: tmax
Method: (Beijing, China, No. SCXK2018-0011). […] All rats were free to access the water and food until 12 h before the experiment. […] So, we applied the method of switching ion modes in the detection process to quantify all analytes better. […] UPLC/MS/MS calibration and quantitation data were processed with Xcalibur workstation (Thermo-Fisher Scientific Inc., Waltham, MA, United States). […]
Measured tmax by item
Give a bare numeral; the unit min is implied.

>>> value_measured("C[C@@]12C[C@@]3(O)O[C@@H](O1)[C@]1(COC(=O)c4ccccc4)[C@H]3C[C@@]12O[C@@H]1O[C@H](CO)[C@@H](O)[C@H](O)[C@H]1O")
19.8

// moving on: another record for tmax
Data request: # get_value(readout='tmax', item= COC(=O)c1cc(O)c(O)c(O)c1 [Methyl gallate] )
Data returned: 30

###

Experiment: Multi-component pharmacokinetics in rat plasma after oral administration of RB, RPA or RB-RPA extracts (UPLC-HRMS, non-compartmental analysis)
Format: in vivo, Sprague-Dawley rats
Conditions: rat plasma, oral RB-RPA mixed extracts (45 g-herb/kg RB + 45 g-herb/kg RPA), mean ± SD, n = 7
Protocol: (Beijing, China, No. SCXK2018-0011). […] All rats were free to access the water and food until 12 h before the experiment. […] So, we applied the method of switching ion modes in the detection process to quantify all analytes better. […] UPLC/MS/MS calibration and quantitation data were processed with Xcalibur workstation (Thermo-Fisher Scientific Inc., Waltham, MA, United States). […]
Reported endpoint: tmax (min)
Give a bare numeral; the unit min is implied.

>>> value_measured("CC1(C)CC[C@]23CO[C@@]4(C=C[C@@H]5[C@@]6(C)CC[C@H](O)[C@@](C)(CO)[C@@H]6CC[C@@]5(C)[C@]4(C)C[C@@H]2O)[C@@H]3C1")
70.2
>>> value_measured("C[C@@H]1O[C@@H](O[C@@H]2[C@H](O)[C@@H](O)[C@H](O[C@H]3CC[C@@]4(C)C(CC[C@]5(C)C4C=C[C@]46OC[C@@]7(CCC(C)(C)CC74)[C@@H](O)C[C@]65C)C3(C)C)O[C@@H]2CO[C@@H]2O[C@H](CO)[C@@H](O)[C@H](O)[C@H]2O)[C@H](O)[C@H](O)[C@H]1O (stereo partly shown)")
39.6
>>> value_measured("C[C@H]1O[C@@H](O[C@H]2CC[C@@]3(C)[C@@H](CC[C@]4(C)[C@@H]3C=CC3=C5CC(C)(C)CC[C@]5(CO)[C@H](O)C[C@]34C)[C@]2(C)CO)[C@H](O)[C@@H](O)[C@H]1O")
42.6

// moving on: another record for tmax
Data request: # get_value(readout='tmax', item= C[C@H]1O[C@@H](O[C@H]2CC[C@@]3(C)[C@@H](CC[C@]4(C)[C@@H]3C=C[C@]35OC[C@@]6(CCC(C)(C)C[C@H]63)[C@H](O)C[C@]54C)[C@]2(C)CO)[C@H](O)[C@@H](O[C@@H]2O[C@H](CO)[C@@H](O)[C@H](O)[C@H]2O)[C@H]1O )
Data returned: 52.2
